Tested on: Ctenocephalides felis
Experiment: Parasiticidal activity against Ctenocephalides felis by cat flea assay
Type: functional
# maps each entry to its LC50
Lab book: enter the figure in ng/cm2, no units written.

Read off the recorded LC50 for C/C(=N\OCC1CCCC1)c1cc(Cl)ccc1NS(=O)(=O)C(F)(F)F
18

Read off the recorded LC50 for CCO/N=C(\C)c1cc(Br)ccc1NS(=O)(=O)C(F)(F)F
11

Read off the recorded LC50 for CC/C(=N\OC1CCCC1)c1cc(Cl)ccc1NS(=O)(=O)C(F)(F)F
21

Read off the recorded LC50 for COCCO/N=C(\C)c1cc(Cl)ccc1NS(=O)(=O)C(F)(F)F
12

Read off the recorded LC50 for CC/C(=N\Oc1ccc(Cl)cc1)c1cc(Cl)ccc1NS(=O)(=O)C(F)(F)F
51

Read off the recorded LC50 for CC/C(=N\OCC1CC1)c1cc(Cl)ccc1NS(=O)(=O)C(F)(F)F
8

Read off the recorded LC50 for CC/C(=N\Oc1ccc(Cl)c(Cl)c1)c1cc(Cl)ccc1NS(=O)(=O)C(F)(F)F
6

Read off the recorded LC50 for CC/C(=N\Oc1ccc(F)cc1)c1cc(Cl)ccc1NS(=O)(=O)C(F)(F)F
35

Read off the recorded LC50 for CC/C(=N\OCc1ccc(C(F)(F)F)cc1C(F)(F)F)c1cc(Cl)ccc1NS(=O)(=O)C(F)(F)F
19

Please look at the following molecule next.
Read off the recorded LC50 for C/C(=N\Oc1ccc(F)cc1)c1cc(Cl)ccc1NS(=O)(=O)C(F)(F)F
10

---

Tested on: Rhipicephalus sanguineus
Assay: Parasiticidal activity against Rhipicephalus sanguineus assessed as mortality after 24 hrs by brown dog tick assay
Assay type: functional
Design: concentration or dose not given beside the values
Property name: Activity
Field note: include the unit after the figure.

Please review the entries below; each comes with its answer.
Read off the recorded Activity for O=S(=O)(Nc1ccc(Cl)cc1/C(=N/OCC1CCCCC1)c1ccccc1)C(F)(F)F
52%

Read off the recorded Activity for C#CCO/N=C(\C)c1cc(Cl)ccc1NS(=O)(=O)C(F)(F)F
100%

Read off the recorded Activity for CC/C(=N\OC)c1cc(Cl)ccc1NS(=O)(=O)C(F)(F)F
95%

Read off the recorded Activity for CC/C(=N\OCC1CCCC1)c1cc(Cl)ccc1NS(=O)(=O)C(F)(F)F
90%

Read off the recorded Activity for CC/C(=N\OCc1ccccc1C(F)(F)F)c1cc(Cl)ccc1NS(=O)(=O)C(F)(F)F
31%

Read off the recorded Activity for CC/C(=N\Oc1ccc(Cl)cc1)c1ccc(C(F)(F)F)cc1NS(=O)(=O)C(F)(F)F
17%

Read off the recorded Activity for C/C(=N\OCC(F)(F)F)c1cc(Cl)ccc1NS(=O)(=O)C(F)(F)F
82%

Read off the recorded Activity for CC/C(=N\OC(C)C)c1cc(Cl)ccc1NS(=O)(=O)C(F)(F)F
100%

Read off the recorded Activity for CC/C(=N\OCC1CC1)c1cc(Cl)ccc1NS(=O)(=O)C(F)(F)F
100%

More entries:
Read off the recorded Activity for CC/C(=N\OCc1ccc(C(F)(F)F)cc1C(F)(F)F)c1cc(Cl)ccc1NS(=O)(=O)C(F)(F)F
88%

---

System: Ctenocephalides felis
Test: Parasiticidal activity against Ctenocephalides felis by cat flea assay
Type: functional
Param label: returns met when LC50 < 30 ng/cm2, returns not met otherwise, including exact equality.

In plain terms, does C#CCO/N=C(\CC)c1cc(Cl)ccc1NS(=O)(=O)C(F)(F)F come in under 30 ng/cm2 for LC50?
met

In plain terms, does C#CCO/N=C(\C)c1cc(Cl)ccc1NS(=O)(=O)C(F)(F)F come in under 30 ng/cm2 for LC50?
met

In plain terms, does CC/C(=N\OCc1cccs1)c1cc(Cl)ccc1NS(=O)(=O)C(F)(F)F come in under 30 ng/cm2 for LC50?
met

In plain terms, does CC/C(=N\OC)c1cc(Cl)ccc1NS(=O)(=O)C(F)(F)F come in under 30 ng/cm2 for LC50?
met

Please turn your attention to the following entry.
In plain terms, does CC(C)/C(=N\Oc1ccc(Cl)cc1)c1cc(Cl)ccc1NS(=O)(=O)C(F)(F)F come in under 30 ng/cm2 for LC50?
not met

---

# maps each entry to its Activity
Tested on: Ctenocephalides felis
Assay: Parasiticidal activity against Ctenocephalides felis assessed as mortality after 24 hrs by cat flea assay
Assay type: functional
Design: concentration or dose not given beside the values
Lab book: enter the figure in %, no units written.

Read off the recorded Activity for C/C(=N\Oc1cccc(C(F)(F)F)c1)c1cc(Cl)ccc1NS(=O)(=O)C(F)(F)F
96

Read off the recorded Activity for CCC/C(=N\OCc1ccc(Cl)cc1Cl)c1cc(Cl)ccc1NS(=O)(=O)C(F)(F)F
88

Read off the recorded Activity for CCO/N=C(\C)c1cccc(OC)c1NS(=O)(=O)C(F)(F)F
45

Read off the recorded Activity for CC/C(=N\OCc1ccccc1C(F)(F)F)c1cc(Cl)ccc1NS(=O)(=O)C(F)(F)F
96

More entries:
Read off the recorded Activity for C/C(=N\OCC1CC1)c1cc(Cl)ccc1NS(=O)(=O)C(F)(F)F
100

Read off the recorded Activity for C/C(=N\Oc1ccc(F)cc1)c1cc(Cl)ccc1NS(=O)(=O)C(F)(F)F
100

Read off the recorded Activity for O=S(=O)(Nc1ccc(Cl)cc1/C(=N/OCC1CCCCC1)c1ccccc1)C(F)(F)F
8

---

# maps each entry to its Activity
Test system: Ctenocephalides felis
Test: Parasiticidal activity against Ctenocephalides felis assessed as mortality after 24 hrs by cat flea assay
Type: functional
Design: concentration or dose not given beside the values
Lab book: enter the figure in %, no units written.

Please review the entries below; each comes with its answer.
Read off the recorded Activity for CC(C)/C(=N\Oc1ccc(F)cc1)c1cc(Cl)ccc1NS(=O)(=O)C(F)(F)F
100

Read off the recorded Activity for CC/C(=N\OCC1CCCCC1)c1ccc(C(F)(F)F)cc1NS(=O)(=O)C(F)(F)F
97

Read off the recorded Activity for CC/C(=N\Oc1ccc(Cl)cc1)c1ccc(C(F)(F)F)cc1NS(=O)(=O)C(F)(F)F
100

Read off the recorded Activity for O=S(=O)(Nc1ccc(Cl)cc1/C(=N/Oc1ccc(F)cc1)c1ccccc1)C(F)(F)F
21

Please look at the following molecule next.
Read off the recorded Activity for CC/C(=N\OCC(F)(F)F)c1cc(Cl)ccc1NS(=O)(=O)C(F)(F)F
100

---

Tested on: Ctenocephalides felis
Experiment: Parasiticidal activity against Ctenocephalides felis assessed as mortality after 24 hrs by cat flea assay
Assay type: functional
Parameters: concentration or dose not given beside the values
Property name: Activity (%)
Lab book: enter the figure in %, no units written.

Please review the entries below; each comes with its answer.
Read off the recorded Activity for CCO/N=C(\C)c1ccccc1NS(=O)(=O)C(F)(F)F
92

Read off the recorded Activity for COCCO/N=C(\C)c1cc(Cl)ccc1NS(=O)(=O)C(F)(F)F
100

Read off the recorded Activity for C/C(=N\OCc1ccc(Cl)cc1)c1cc(Cl)ccc1NS(=O)(=O)C(F)(F)F
100

Read off the recorded Activity for CC/C(=N\OCC1CCCCC1)c1cc(Cl)ccc1NS(=O)(=O)C(F)(F)F
100

Please look at the following molecule next.
Read off the recorded Activity for C/C(=N\Oc1cccc(Cl)c1)c1cc(Cl)ccc1NS(=O)(=O)C(F)(F)F
100

---

# maps each entry to its Activity
System: Ctenocephalides felis
Assay: Parasiticidal activity against Ctenocephalides felis assessed as mortality after 24 hrs by cat flea assay
Assay type: functional
Set-up: concentration or dose not given beside the values
Lab book: enter the figure in %, no units written.

Please review the entries below; each comes with its answer.
Read off the recorded Activity for CC/C(=N\OC)c1cc(Cl)ccc1NS(=O)(=O)C(F)(F)F
100

Read off the recorded Activity for CC/C(=N\OC1CCCC1)c1cc(Cl)ccc1NS(=O)(=O)C(F)(F)F
100

Read off the recorded Activity for CC/C(=N\Oc1ccc(F)cc1)c1cc(Cl)ccc1NS(=O)(=O)C(F)(F)F
100

Read off the recorded Activity for CC/C(=N\OCCOC)c1cc(Cl)ccc1NS(=O)(=O)C(F)(F)F
100

Read off the recorded Activity for O=S(=O)(Nc1ccc(Cl)cc1/C=N/OCc1ccc(Cl)c(Cl)c1)C(F)(F)F
42

More entries:
Read off the recorded Activity for C/C(=N\OC1CCCCC1)c1cc(Cl)ccc1NS(=O)(=O)C(F)(F)F
100

Read off the recorded Activity for CC/C(=N\OCc1ccc(Cl)cc1)c1ccc(C(F)(F)F)cc1NS(=O)(=O)C(F)(F)F
100

Read off the recorded Activity for CC/C(=N\Oc1ccc(Cl)cc1)c1cc(Cl)ccc1NS(=O)(=O)C(F)(F)F
100

Read off the recorded Activity for CC/C(=N\OC(C)C)c1cc(Cl)ccc1NS(=O)(=O)C(F)(F)F
100

Read off the recorded Activity for CC/C(=N\OCc1cccs1)c1cc(Cl)ccc1NS(=O)(=O)C(F)(F)F
100

Read off the recorded Activity for CC/C(=N\OCc1ccc(Cl)c(Cl)c1)c1cc(Cl)ccc1NS(=O)(=O)C(F)(F)F
100

Read off the recorded Activity for CC/C(=N\OCC1CCCC1)c1cc(Cl)ccc1NS(=O)(=O)C(F)(F)F
97

Read off the recorded Activity for C/C(=N\OC(C)(C)C)c1cc(Cl)ccc1NS(=O)(=O)C(F)(F)F
100

Read off the recorded Activity for CCO/N=C(\C)c1cc(Br)ccc1NS(=O)(=O)C(F)(F)F
100
